# assayedTarget: DNA topoisomerase 2-alpha (Homo sapiens) (UniProt P11388)
# Sequence (P11388 whole entry): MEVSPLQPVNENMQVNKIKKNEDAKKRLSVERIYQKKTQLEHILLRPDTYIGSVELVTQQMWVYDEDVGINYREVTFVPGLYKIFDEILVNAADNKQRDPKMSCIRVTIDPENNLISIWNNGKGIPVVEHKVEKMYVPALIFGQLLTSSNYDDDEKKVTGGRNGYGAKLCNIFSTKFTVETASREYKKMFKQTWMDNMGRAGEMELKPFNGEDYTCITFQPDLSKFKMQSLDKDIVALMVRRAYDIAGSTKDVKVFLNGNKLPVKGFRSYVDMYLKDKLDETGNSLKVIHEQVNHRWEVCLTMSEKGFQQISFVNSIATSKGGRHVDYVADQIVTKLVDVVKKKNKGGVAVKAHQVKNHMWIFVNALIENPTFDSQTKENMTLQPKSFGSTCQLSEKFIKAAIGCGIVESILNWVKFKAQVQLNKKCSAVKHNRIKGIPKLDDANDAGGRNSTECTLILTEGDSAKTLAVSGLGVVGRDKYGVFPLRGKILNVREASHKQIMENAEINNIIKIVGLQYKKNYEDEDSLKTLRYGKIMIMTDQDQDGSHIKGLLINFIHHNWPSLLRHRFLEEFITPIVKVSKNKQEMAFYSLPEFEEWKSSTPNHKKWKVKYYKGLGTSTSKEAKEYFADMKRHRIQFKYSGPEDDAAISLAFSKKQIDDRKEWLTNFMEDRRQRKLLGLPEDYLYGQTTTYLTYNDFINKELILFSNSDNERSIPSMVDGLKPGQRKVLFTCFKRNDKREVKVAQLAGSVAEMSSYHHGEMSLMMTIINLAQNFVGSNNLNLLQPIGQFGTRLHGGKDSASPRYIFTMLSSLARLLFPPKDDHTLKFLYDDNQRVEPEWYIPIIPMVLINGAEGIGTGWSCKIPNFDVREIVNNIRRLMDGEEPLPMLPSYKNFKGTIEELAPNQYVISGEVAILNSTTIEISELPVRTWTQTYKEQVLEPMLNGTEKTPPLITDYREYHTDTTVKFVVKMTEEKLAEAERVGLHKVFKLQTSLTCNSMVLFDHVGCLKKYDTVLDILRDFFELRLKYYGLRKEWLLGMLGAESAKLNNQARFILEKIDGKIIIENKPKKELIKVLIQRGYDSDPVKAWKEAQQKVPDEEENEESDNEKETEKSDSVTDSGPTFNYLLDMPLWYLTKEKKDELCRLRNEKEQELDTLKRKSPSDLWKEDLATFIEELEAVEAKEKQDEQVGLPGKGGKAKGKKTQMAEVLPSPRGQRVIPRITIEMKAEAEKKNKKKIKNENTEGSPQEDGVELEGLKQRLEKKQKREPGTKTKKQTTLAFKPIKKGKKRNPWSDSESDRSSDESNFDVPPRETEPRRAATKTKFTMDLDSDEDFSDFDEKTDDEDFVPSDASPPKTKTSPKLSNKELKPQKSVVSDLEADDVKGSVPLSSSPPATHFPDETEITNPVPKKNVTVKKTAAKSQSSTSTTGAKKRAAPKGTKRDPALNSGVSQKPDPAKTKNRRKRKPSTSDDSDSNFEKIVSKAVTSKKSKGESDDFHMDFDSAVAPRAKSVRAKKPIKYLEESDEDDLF
# testDetails: Inhibition of Topoisomerase 2 (unknown origin) at 100 uM by electrophoresis analysis
Calls of active or inactive are those of the source. The calls are words filed in the database; no cut-off is given here.

compound	inhibition
CC1(C)CC(=O)N2CC(=O)Nc3c2c1cc1[nH]c2c(Br)cccc2c31	Active
CC1(C)CC(=O)N2CC(=O)Nc3cc(Nc4ccccc4Br)cc1c32	inactive
CC1(C)CCN2CCNc3cccc1c32	inactive
COc1cccc2c1C(=O)c1c(O)c3c(c(O)c1C2=O)C[C@@](O)(C(=O)CO)C[C@@H]3O[C@H]1C[C@H](N)[C@H](O)[C@H](C)O1.Cl [DOXORUBICIN HYDROCHLORIDE]	Active
